B1: HDV Ribozyme (parent)
chain: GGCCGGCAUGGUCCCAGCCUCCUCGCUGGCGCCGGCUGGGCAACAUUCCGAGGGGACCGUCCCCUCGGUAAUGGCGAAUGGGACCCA

- Variants of: B1
- Assay info: self-cleavage, relative activity (ratio to wild type); higher = more cleavage; co-transcriptional
Could you label it T if measured self-cleavage is 0.1 or higher, and F otherwise?

Record excerpt, results attached:
Mutant id | Cat
U27C G74U | T
U47G C48G | T

Dear colleague, could you confirm whether A78C C86A has self-cleavage at or above 0.1?
T

# check: self-cleavage of C21U G81C is greater than or equal to 0.1
T

Hi team, for G6U A87C , is the recorded self-cleavage at or above 0.1?
T
